The origin of these recorded values is paper PMC11855086.

Test system: E. coli K12 (ATCC 25404)
Assay: MIC and MBC, microtiter plate technique
Assay type: cell-based
Conditions: Escherichia coli, ATCC25404
We begin with a simple list: items and their reported MBC.
parameter.measured: MBC

[
  {
    "molecule": "COc1ccc(CNC(=O)C(c2ccc(O)c(O)c2)N(Cc2ccc(OC)cc2)C(=O)Cc2ccccc2)cc1 (stereo not shown)",
    "result": "0.61 µM"
  },
  {
    "molecule": "CCCCN(C(C)=O)C(C(=O)NCc1ccc(OC)cc1)c1ccc(O)c(O)c1 (stereo not shown)",
    "result": "0.79 µM"
  },
  {
    "molecule": "CCCCN(C(=O)Cc1ccccc1)C(C(=O)NCc1ccc(F)cc1)c1ccc(O)c(O)c1 (stereo not shown)",
    "result": "1.05 µM"
  },
  {
    "molecule": "O=C(NCc1ccccc1)C(c1ccc(O)c(O)c1)N(C(=O)Cc1ccccc1)C1CCCCC1 (stereo not shown)",
    "result": "0.74 µM"
  }
]

* * *

Catalogue of compounds with associated MBC
System: E. coli R4 (ATCC 39543)
Experiment: MIC and MBC, microtiter plate technique
Assay type: cell-based
Settings: Escherichia coli, ATCC39543
parameter.measured: MBC (µM)

[
  {
    "compound": "COc1ccc(CN(C(C)=O)C(C(=O)NCc2ccc(F)cc2)c2ccc(O)c(O)c2)cc1 (stereo not shown) [Compound 5l]",
    "parameter.measured": "MBC",
    "measured.number": 2.76
  },
  {
    "compound": "CCCCN(C(=O)Cc1ccccc1)C(C(=O)NCc1ccccc1)c1ccc(O)c(O)c1 (stereo not shown) [Compound 5g]",
    "parameter.measured": "MBC",
    "measured.number": 1.41
  },
  {
    "compound": "COc1ccc(CNC(=O)C(c2ccc(O)c(O)c2)N(Cc2ccc(OC)cc2)C(=O)Cc2ccccc2)cc1 (stereo not shown) [Compound 5b]",
    "parameter.measured": "MBC",
    "measured.number": 2.21
  },
  {
    "compound": "O=Cc1ccc(O)c(O)c1 [Compound 1, 3,4-dihydroxybenzaldehyde, reference compound]",
    "parameter.measured": "MBC",
    "measured.number": 3.58
  },
  {
    "compound": "O=C(NCc1ccc(F)cc1)C(c1ccc(O)c(O)c1)N(C(=O)Cc1ccccc1)C1CCCCC1 (stereo not shown) [Compound 5f]",
    "parameter.measured": "MBC",
    "measured.number": 1.3
  },
  {
    "compound": "CCCCN(C(=O)Cc1ccccc1)C(C(=O)NCc1ccc(OC)cc1)c1ccc(O)c(O)c1 (stereo not shown) [Compound 5h]",
    "parameter.measured": "MBC",
    "measured.number": 1.42
  },
  {
    "compound": "COc1ccc(CN(C(=O)Cc2ccccc2)C(C(=O)NCc2ccc(F)cc2)c2ccc(O)c(O)c2)cc1 (stereo not shown) [Compound 5c]",
    "parameter.measured": "MBC",
    "measured.number": 2.36
  }
]

* * *

# Lookup of reported MBC keyed by entry
System: E. coli K12 (ATCC 25404)
Experiment: MIC and MBC, microtiter plate technique
Assay type: cell-based
Settings: Escherichia coli, ATCC25404

[
  {
    "compound": "COc1ccc(CNC(=O)C(c2ccc(O)c(O)c2)N(Cc2ccc(OC)cc2)C(C)=O)cc1 (stereo not shown)",
    "MBC, µM": 0.79
  },
  {
    "compound": "CC(=O)N(C1CCCCC1)C(C(=O)NCc1ccc(F)cc1)c1ccc(O)c(O)c1 (stereo not shown)",
    "MBC, µM": 0.86
  },
  {
    "compound": "COc1ccc(CNC(=O)C(c2ccc(O)c(O)c2)N(C(=O)Cc2ccccc2)C2CCCCC2)cc1 (stereo not shown)",
    "MBC, µM": 0.87
  },
  {
    "compound": "CCCCN(C(=O)Cc1ccccc1)C(C(=O)NCc1ccccc1)c1ccc(O)c(O)c1 (stereo not shown)",
    "MBC, µM": 0.71
  }
]

* * *

Target: mushroom tyrosinase (mTYR) (Agaricus bisporus, UniProt C7FF04)
Construct: purchased Sigma-Aldrich (Poznan, Poland); host or cells: Agaricus bisporus (extracted natural enzyme)
Sequence (C7FF04 1-392 limits assumed): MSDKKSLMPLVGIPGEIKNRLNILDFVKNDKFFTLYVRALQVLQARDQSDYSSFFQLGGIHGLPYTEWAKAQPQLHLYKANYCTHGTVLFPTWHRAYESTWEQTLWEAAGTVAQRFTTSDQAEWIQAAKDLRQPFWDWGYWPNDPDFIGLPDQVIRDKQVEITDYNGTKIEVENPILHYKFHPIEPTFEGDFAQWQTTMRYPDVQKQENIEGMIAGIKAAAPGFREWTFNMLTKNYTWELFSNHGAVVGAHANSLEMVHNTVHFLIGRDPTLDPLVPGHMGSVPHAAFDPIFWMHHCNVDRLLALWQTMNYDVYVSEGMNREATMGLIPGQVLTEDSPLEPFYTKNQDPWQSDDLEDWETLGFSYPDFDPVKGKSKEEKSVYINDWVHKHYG
Assay: Tyrosinase assay with L-DOPA as substrate (absorbance at 475 nm)
Type: biochemical
Conditions: 100 µM compound
compounds and their reported inhibition at 100 µM

[
  {
    "compound": "O=Cc1ccc(O)c(O)c1 [Compound 1, 3,4-dihydroxybenzaldehyde, reference compound]",
    "inhibition at 100 µM": "15%"
  },
  {
    "compound": "CCCCN(C(=O)Cc1ccccc1)C(C(=O)NCc1ccccc1)c1ccc(O)c(O)c1 (stereo not shown) [Compound 5g]",
    "inhibition at 100 µM": "> 10%"
  },
  {
    "compound": "CCCCN(C(=O)Cc1ccccc1)C(C(=O)NCc1ccc(F)cc1)c1ccc(O)c(O)c1 (stereo not shown) [Compound 5i]",
    "inhibition at 100 µM": "> 10%"
  },
  {
    "compound": "CCCCN(C(C)=O)C(C(=O)NCc1ccc(OC)cc1)c1ccc(O)c(O)c1 (stereo not shown) [Compound 5q]",
    "inhibition at 100 µM": "< 10%"
  }
]
